# tested-system: Nucleotide-binding oligomerization domain-containing protein 2 (Homo sapiens, UniProt Q9HC29)
# Sequence (Q9HC29 whole entry, the tested form may be a part): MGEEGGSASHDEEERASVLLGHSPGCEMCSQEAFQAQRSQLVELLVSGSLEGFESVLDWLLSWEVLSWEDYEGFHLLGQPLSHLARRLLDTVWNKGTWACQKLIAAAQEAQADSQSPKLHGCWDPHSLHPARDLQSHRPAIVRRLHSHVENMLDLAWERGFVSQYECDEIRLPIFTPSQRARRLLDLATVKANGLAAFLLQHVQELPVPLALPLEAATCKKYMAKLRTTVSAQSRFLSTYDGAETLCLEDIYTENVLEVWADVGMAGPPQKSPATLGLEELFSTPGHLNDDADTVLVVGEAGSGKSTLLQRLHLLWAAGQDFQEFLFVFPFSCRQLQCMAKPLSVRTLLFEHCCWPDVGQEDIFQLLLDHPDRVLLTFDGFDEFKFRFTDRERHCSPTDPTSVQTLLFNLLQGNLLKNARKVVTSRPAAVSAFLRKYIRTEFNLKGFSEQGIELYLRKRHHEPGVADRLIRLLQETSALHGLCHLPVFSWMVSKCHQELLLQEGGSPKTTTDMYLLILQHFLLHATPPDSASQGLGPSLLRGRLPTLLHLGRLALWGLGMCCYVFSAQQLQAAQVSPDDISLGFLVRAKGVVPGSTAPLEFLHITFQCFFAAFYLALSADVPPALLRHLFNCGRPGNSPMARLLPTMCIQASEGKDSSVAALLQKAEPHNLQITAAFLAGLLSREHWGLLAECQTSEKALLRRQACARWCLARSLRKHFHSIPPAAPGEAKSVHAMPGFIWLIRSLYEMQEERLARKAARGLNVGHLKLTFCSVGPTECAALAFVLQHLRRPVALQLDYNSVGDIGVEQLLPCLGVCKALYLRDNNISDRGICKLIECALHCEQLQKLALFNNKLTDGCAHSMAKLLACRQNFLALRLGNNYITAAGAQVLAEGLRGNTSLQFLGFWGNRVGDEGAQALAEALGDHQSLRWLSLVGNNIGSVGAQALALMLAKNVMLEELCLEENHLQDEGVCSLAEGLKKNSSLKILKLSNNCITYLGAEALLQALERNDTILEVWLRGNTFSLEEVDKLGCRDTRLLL
# test-details: Antagonist activity at human NOD2 expressed in HEK-Blue cells assessed as inhibition of MDP-stimulated cell activation at 10 uM preincubated for 3 hrs followed by MDP addition measured after 20 hrs by SEAP reporter gene assay
# Assay type: cell-based
The following molecules are listed with their measured inhibition values.
quantity-measured: inhibition (%)

                               entry_smiles  value_reported
0  CN(C)c1cccc(Oc2cc3c(cc2NC(=O)COCc2ccc(C(F)(F)F)cc2)NC(=O)[C@@H](CCC(=O)N2CCC(F)CC2)NC3=O)c1            94.7
1  COC(=O)CC[C@H]1NC(=O)c2cc(Oc3cc(N(C)C)ccc3Cl)c(NC(=O)COCc3ccccc3)cc2NC1=O            7.26
2  COC(=O)CC[C@H]1NC(=O)c2cc(Oc3cccc(N4CCCC4)c3)c(NC(=O)COCc3ccc(Cl)cc3)cc2NC1=O              94
3  COC(=O)CC[C@H]1NC(=O)c2cc(Oc3ccc(Cl)c(N(C)C)c3)c(NC(=O)COCc3ccccc3)cc2NC1=O            78.1
4  COC(=O)CC[C@@H]1C(=O)Nc2cc(Cl)ccc2C(=O)N1C           -1.87
5  COC(=O)CC[C@H]1NC(=O)c2cc(Oc3cc(N(C)C)cc(Cl)c3Cl)c(NC(=O)COCc3ccccc3)cc2NC1=O            6.85
6  O=C(O)CC[C@H]1NC(=O)c2cc(Oc3cccc4ccccc34)c(NC(=O)/C=C\c3ccc(F)cc3Cl)cc2NC1=O            7.76
